Origin of the recorded values: PubChem BioAssay

target: Focal adhesion kinase 1 (Homo sapiens) (UniProt Q05397); assay: small-molecule microarray binders of FAK, primary screen, biochemical, 635/667 nm fluorescence, BSA, DTT (AID 1130); settings: PTK2 binding, 635 nm fluorescence, higher = more signal;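 further: composite of spot emission at 667 nm and signal to noise over triplicate slides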
Sequence (Q05397 whole entry, looked up): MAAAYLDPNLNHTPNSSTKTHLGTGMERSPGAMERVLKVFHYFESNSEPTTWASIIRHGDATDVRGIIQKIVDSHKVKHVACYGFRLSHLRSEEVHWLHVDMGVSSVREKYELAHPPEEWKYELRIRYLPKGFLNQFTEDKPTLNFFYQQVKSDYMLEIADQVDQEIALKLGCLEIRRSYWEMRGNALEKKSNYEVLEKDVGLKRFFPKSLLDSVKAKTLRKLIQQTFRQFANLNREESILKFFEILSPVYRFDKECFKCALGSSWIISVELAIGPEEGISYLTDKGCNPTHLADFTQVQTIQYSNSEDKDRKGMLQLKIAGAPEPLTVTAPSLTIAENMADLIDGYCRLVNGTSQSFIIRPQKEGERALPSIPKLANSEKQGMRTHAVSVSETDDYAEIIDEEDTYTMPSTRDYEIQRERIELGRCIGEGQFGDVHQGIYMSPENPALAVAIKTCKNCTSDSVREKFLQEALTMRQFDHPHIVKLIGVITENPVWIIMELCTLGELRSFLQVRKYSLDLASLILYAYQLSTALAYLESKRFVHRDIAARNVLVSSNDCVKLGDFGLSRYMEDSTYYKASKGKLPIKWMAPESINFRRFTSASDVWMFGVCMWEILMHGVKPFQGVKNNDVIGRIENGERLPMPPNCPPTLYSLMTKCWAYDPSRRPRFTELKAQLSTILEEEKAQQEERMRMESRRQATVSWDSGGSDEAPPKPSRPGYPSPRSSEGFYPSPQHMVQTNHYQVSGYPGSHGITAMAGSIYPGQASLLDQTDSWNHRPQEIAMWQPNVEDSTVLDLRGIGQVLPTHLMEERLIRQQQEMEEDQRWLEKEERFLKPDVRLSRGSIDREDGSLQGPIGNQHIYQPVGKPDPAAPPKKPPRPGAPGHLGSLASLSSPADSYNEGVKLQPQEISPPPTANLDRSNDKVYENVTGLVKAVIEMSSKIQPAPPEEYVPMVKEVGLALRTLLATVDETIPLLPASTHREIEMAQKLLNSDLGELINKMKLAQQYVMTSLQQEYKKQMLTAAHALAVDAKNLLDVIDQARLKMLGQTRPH
Classify as follows. Reported composite z-score greater than or equal to 0.01: 1. Reported composite z-score below: -1.

Take a look at these entries with their results.
1. CC(C)[C@@H](OCc1ccccc1)[C@H](C)CON=C1[C@H]2CCn3c(=O)n(-c4ccccc4)c(=O)n3[C@H]2[C@H](O)[C@@H]2O[C@H]12: 1
2. COCC#Cc1ccc([C@@H]2N[C@H](C(=O)O)CC[C@H]2C)cc1: 1
3. COc1ccc(O[C@H]2C=C[C@@H](c3ccccc3)O[C@@H]2CON=C(C)CCN2CCCc3nc(C)c(C)cc32)cc1: 1
4. CO[C@H]1COC(=O)[C@H](C)COC(=O)[C@H](C)NC(=O)CC=C[C@H]1C: -1
5. CC(C)C(=O)N[C@H]1CCCN1C(=O)C=Cc1ccccc1: 1

q: Answer whether composite z-score of COC(=O)[C@H](C)NC(=O)CCC1CC(OC(=O)NCCc2ccc(F)cc2)CC2(CCCC(COC(=O)NCC3CCCCC3)O2)O1 (stereo partly specified) is greater than or equal to 0.01.
a: 1

q: Answer whether composite z-score of CC(CCN1CCc2nc(-c3ccccc3)c(-c3ccccc3)cc2C1)=NO[C@@H](C)c1cc(-c2c(C)cc(C)cc2C)no1 is greater than or equal to 0.01.
a: -1

q: Answer whether composite z-score of CCN1C(=O)[C@H]2[C@H]3[C@H](O)[C@H](O)CC(=NOC(C)CN4CCCc5nc(C)c(C)cc54)[C@@H]3CC[C@H]2C1=O (stereo partly specified) is greater than or equal to 0.01.
a: 1

q: Answer whether composite z-score of C#CCCCON=C1C[C@@H](O)[C@@H](O)[C@@H]2[C@@H]3C(=O)N(C[C@@H]4CCCO4)C(=O)[C@@H]3CC[C@H]12 is greater than or equal to 0.01.
a: 1

q: Answer whether composite z-score of COC(=O)C1=C(C)N(Cc2ccccc2)C2=C3C(=O)OCC[C@@H]3[C@@](O)(C(=O)OC)C(=O)N2[C@@H]1c1ccccc1 is greater than or equal to 0.01.
a: 1

q: Answer whether composite z-score of CO[C@H]1C[C@@H]2C[C@H](O)CC(CC(=O)O[C@@H](C=CCC(C)C)C[C@@H]3CC[C@H](C)[C@@H](C1)O3)O2 is greater than or equal to 0.01.
a: 1

q: Answer whether composite z-score of COC(=O)[C@H](C)NC(=O)CCC1CC(OC(=O)NCc2cccc3ccccc23)CC2(CCCC(COC(=O)NCCC(C)C)O2)O1 (stereo partly specified) is greater than or equal to 0.01.
a: 1

q: Answer whether composite z-score of CO[C@H]1COC(=O)CCC[C@H](C)[C@H](OC)COC(=O)CC=C[C@@H]1C is greater than or equal to 0.01.
a: -1

q: Answer whether composite z-score of CC(CCN1CCCCc2nc(C)c(C)cc21)=NO[C@@H](C)c1cc(-c2c(C)cc(C)cc2C)no1 is greater than or equal to 0.01.
a: 1

q: Answer whether composite z-score of CCOC(=O)CCN1C(=O)[C@H]2[C@H]3[C@H](O)[C@H](O)CC(=NOCC=C(C)CCC=C(C)C)[C@H]3CC[C@H]2C1=O is greater than or equal to 0.01.
a: -1

q: Answer whether composite z-score of C[C@H]1CC[C@@H](C(=O)O)N[C@@H]1c1cccc(N2CCCC2=O)c1 is greater than or equal to 0.01.
a: -1

q: Answer whether composite z-score of COc1ccc(O[C@H]2C=C[C@@H](c3ccccc3)O[C@@H]2CON=C2c3cc(OC)ccc3O[C@H](c3cccc(OC)c3)[C@H]2O)cc1 is greater than or equal to 0.01.
a: 1

q: Answer whether composite z-score of CON(C)C(=O)c1nnc2c(n1)[nH]c1ccccc12 is greater than or equal to 0.01.
a: 1
